target: CDK9/CyclinT1 (Homo sapiens (Human), UniProt P50750); experiment: In vitro enzymatic inhibitory activity test, CDK9; details: Caliper mobility shift, 180 min at 27° C.
Sequence (P50750 whole entry, species assumed): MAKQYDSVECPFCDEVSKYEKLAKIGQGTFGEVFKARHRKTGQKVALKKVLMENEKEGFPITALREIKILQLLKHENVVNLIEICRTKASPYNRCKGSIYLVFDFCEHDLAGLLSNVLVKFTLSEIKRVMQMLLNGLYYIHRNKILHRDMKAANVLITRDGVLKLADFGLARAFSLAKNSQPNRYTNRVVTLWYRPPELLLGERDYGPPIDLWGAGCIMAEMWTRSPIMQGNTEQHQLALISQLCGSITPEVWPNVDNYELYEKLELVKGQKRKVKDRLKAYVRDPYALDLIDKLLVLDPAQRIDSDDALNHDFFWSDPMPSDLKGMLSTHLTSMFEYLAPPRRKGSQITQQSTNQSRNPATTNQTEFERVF
Sequence (O60563 whole entry partner, species assumed): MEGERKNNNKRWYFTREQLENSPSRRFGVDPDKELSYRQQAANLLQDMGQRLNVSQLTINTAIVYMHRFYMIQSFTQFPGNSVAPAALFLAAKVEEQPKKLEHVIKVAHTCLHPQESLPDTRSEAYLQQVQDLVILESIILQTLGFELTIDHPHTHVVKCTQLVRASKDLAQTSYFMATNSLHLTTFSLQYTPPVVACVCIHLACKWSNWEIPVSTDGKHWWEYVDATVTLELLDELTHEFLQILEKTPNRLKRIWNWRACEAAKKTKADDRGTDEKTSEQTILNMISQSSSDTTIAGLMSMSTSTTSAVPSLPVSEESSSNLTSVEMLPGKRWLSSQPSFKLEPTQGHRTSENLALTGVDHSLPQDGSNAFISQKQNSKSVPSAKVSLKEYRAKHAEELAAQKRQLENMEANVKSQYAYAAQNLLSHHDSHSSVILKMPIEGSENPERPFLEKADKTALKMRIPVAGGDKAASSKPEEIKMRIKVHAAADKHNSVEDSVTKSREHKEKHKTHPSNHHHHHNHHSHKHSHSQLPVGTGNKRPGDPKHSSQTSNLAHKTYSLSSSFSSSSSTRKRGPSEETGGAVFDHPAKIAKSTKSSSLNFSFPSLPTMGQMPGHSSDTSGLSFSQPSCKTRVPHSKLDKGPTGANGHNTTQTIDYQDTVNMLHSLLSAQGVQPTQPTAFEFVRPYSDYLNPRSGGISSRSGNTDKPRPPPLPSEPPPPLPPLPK
With a cut-off of 3 µM, any IC50 strictly below it is called 1 (yes); any IC50 meeting it or above is called 0 (no).

Determine if `FC(F)(F)c1cnc(N[C@@H]2[C@@H]3CC[C@H]2NC3)nc1-c1c[nH]c2nc(N3CCOCC3)ccc12` shows IC50 strictly lower than 3 µM.
0 (no)

Determine if FC(F)(F)c1cnc(N[C@H]2CCCNC2)nc1-c1c[nH]c2nc(C3CCOC3)ccc12 (single isomer, unassigned) [Compound 108] shows IC50 strictly lower than 3 µM.
1 (yes)

Determine if `FC(F)(F)c1cnc(N[C@@H]2CN3CCC2CC3)nc1-c1c[nH]c2nc(N3CCOCC3)ccc12` shows IC50 strictly lower than 3 µM.
0 (no)

Determine if CC1COCCC1c1ccc2c(-c3nc(N[C@H]4CCCNC4)ncc3C(F)(F)F)c[nH]c2n1 (some centres unmarked) shows IC50 strictly lower than 3 µM.
0 (no)

---

biological target: CDK9/CyclinT1 (Homo sapiens (Human), UniProt P50750); assay: In vitro enzymatic inhibitory activity test, CDK9; conditions: Caliper mobility shift, 180 min at 27° C.
quantity: pIC50
In simple prose, pIC50 is minus the logarithm base ten of a concentration in moles per litre.

Recorded results for 2 compounds are shown here.
substancesmiles=FC(F)(F)c1cnc(N[C@H]2CCCNC2)nc1-c1c[nH]c2nc(N3CCC4(CCO4)CC3)ccc12 measured=5.45
substancesmiles=FC(F)(F)c1cnc(N[C@H]2CCCNC2)nc1-c1c[nH]c2nc(N3CC4(CCCOC4)C3)ccc12 measured=5.37

Annotate the compound `FC(F)(F)c1cnc(N[C@H]2CCCNC2)nc1-c1c[nH]c2nc(N3C4COCC3C4)ccc12` with its measured pIC50.
5.43

---

biological target: CDK12(aa686-1082)/cyclin K complex (Homo sapiens (Human), UniProt Q9NYV4); test: In vitro enzymatic inhibitory activity test, CDK12; conditions: Caliper mobility shift, 180 min at 27° C.
Sequence (Q9NYV4 686-1082, species assumed): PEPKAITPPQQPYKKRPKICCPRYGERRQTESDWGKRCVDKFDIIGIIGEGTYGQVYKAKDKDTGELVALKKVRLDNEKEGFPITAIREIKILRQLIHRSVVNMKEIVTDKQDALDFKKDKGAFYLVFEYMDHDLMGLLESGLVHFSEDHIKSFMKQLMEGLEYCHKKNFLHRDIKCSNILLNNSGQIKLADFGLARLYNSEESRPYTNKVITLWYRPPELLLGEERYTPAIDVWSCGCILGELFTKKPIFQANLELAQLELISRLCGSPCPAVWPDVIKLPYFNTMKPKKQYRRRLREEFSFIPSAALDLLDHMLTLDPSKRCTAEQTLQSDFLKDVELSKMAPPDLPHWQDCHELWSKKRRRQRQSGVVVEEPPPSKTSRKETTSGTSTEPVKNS
Sequence (O75909 whole entry partner, species assumed, the tested form may be a part): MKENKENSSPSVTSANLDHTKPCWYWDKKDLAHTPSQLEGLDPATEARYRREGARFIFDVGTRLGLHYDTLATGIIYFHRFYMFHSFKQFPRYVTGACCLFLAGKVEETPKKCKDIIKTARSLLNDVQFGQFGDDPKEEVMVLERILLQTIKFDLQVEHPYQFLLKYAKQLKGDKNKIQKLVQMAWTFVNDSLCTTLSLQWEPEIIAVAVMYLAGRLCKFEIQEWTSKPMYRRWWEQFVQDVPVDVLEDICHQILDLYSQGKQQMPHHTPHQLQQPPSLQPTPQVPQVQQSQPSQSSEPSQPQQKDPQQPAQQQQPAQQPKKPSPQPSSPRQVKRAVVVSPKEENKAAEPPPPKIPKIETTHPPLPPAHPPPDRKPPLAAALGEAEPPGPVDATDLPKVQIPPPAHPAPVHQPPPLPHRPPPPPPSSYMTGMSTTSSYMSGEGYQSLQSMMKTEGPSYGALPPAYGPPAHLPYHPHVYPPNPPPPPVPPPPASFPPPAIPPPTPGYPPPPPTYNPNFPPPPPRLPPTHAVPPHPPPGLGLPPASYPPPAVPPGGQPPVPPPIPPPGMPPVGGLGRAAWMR
Structures can show the parent of a compound that is named as a salt.
quantity: pIC50
In simple prose, pIC50 is minus the logarithm base ten of a concentration in moles per litre.

Recorded results for 10 compounds are shown here.
compound=CC1(O)CCN(c2ccc3c(-c4nc(N[C@H]5CCCNC5)ncc4C(F)(F)F)c[nH]c3n2)CC1 quantity=pIC50 measured=6.11
compound=FC(F)(F)c1cnc(N[C@H]2CCCNC2)nc1-c1c[nH]c2nc(C3=CCOCC3)ccc12 quantity=pIC50 measured=6.38
compound=FC(F)(F)c1cnc(N[C@@H]2CN3CCC2CC3)nc1-c1c[nH]c2nc(N3CCOCC3)ccc12 quantity=pIC50 measured=5.35
compound=C[C@H]1COCCN1c1ccc2c(-c3nc(N[C@H]4CCC5(CC5)NC4)ncc3C(F)(F)F)c[nH]c2n1 quantity=pIC50 measured=4.31
compound="FC(F)(F)c1cnc(N[C@H]2CCCNC2)nc1-c1c[nH]c2cc(N3CCCC3)ccc12 [Compound 101, reference compound]" quantity=pIC50 measured=5.80
compound=C[C@H]1COCCN1c1nc2[nH]cc(-c3nc(N[C@H]4CCCNC4)ncc3C(F)(F)F)c2cc1F quantity=pIC50 measured=5.48
compound=C[C@@H]1COCCN1c1ccc2c(-c3nc(N[C@H]4CCCNC4)ncc3C(F)(F)F)c[nH]c2n1 quantity=pIC50 measured=5.06
compound="FC(F)(F)c1cnc(N[C@H]2CCCNC2)nc1-c1c[nH]c2nc(N3CC4CCC3CO4)ccc12 (some centres unmarked)" quantity=pIC50 measured=5.46
compound=FC(F)(F)c1cnc(N[C@H]2CCCNC2)nc1-c1c[nH]c2nc(N3CCCC4(CCOCC4)C3)ccc12 quantity=pIC50 measured=6.08
compound="FC(F)(F)c1cnc(N[C@H]2CCCNC2)nc1-c1c[nH]c2nc(C3CCCCO3)ccc12 (some centres unmarked) [Compound 30, formate]" quantity=pIC50 measured=5.67

Annotate the compound `FC(F)(F)c1cnc(N[C@H]2CCCNC2)nc1-c1c[nH]c2nc(C3=CCCCO3)ccc12` with its measured pIC50.
6.00

Annotate the compound `FC(F)(F)c1cnc(N[C@H]2CCCNC2)nc1-c1c[nH]c2nc(N3CCC4(CCOC4)CC3)ccc12` with its measured pIC50.
5.90

Annotate the compound `FC(F)(F)c1cnc(N[C@H]2CCCNC2)nc1-c1c[nH]c2nc(N3CCC4(CCO4)CC3)ccc12` with its measured pIC50.
5.91

Annotate the compound `FC(F)(F)c1cnc(N[C@H]2CCCNC2)nc1-c1c[nH]c2nc(N3C[C@H]4C[C@@H]3CO4)ccc12` with its measured pIC50.
5.74

Annotate the compound FC(F)(F)c1cnc(N[C@H]2CCCNC2)nc1-c1c[nH]c2nc(C3CCOCC3)ccc12 [Compound 28, formate] with its measured pIC50.
5.96

---

target: CDK7/cyclin H/MAT1 complex (Homo sapiens (Human), UniProt P50613); assay: In vitro enzymatic inhibitory activity test, CDK7; format: biochemical; details: Caliper mobility shift, 180 min at 27° C.
Sequence (P50613 whole entry, species assumed): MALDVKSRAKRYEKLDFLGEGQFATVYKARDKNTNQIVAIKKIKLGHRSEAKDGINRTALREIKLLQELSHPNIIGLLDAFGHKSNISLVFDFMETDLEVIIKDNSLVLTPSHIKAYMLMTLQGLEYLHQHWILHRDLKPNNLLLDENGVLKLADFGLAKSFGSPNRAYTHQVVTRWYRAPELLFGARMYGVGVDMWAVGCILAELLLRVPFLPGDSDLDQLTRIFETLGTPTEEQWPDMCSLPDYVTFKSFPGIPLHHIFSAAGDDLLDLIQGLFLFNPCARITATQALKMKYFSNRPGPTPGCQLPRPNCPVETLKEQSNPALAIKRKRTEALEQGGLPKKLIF
Sequence (P51946 whole entry partner, species assumed): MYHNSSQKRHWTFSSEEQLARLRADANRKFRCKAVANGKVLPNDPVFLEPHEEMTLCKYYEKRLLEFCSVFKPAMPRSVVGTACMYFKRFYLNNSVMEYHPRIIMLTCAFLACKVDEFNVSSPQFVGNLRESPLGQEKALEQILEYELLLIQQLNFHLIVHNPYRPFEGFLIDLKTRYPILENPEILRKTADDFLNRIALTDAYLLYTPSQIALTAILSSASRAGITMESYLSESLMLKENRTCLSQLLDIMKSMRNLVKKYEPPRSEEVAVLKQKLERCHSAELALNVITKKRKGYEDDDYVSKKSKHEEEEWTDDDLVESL
Sequence (P51948 whole entry partner, species assumed): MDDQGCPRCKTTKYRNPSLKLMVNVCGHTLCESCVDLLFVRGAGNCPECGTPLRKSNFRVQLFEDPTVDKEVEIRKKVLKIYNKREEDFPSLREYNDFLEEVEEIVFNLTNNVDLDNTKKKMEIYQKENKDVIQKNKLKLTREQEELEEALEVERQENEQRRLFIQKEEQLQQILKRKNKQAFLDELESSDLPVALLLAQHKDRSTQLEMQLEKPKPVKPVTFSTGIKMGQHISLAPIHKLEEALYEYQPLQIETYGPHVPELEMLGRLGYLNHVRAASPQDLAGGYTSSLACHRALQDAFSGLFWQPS
Counter-ions that a name gives are not always drawn.
quantity: pIC50
In simple prose, pIC50 is minus the logarithm base ten of a concentration in moles per litre.

Recorded results for 3 compounds are shown here.
compound=CC1(C#N)CN(c2ccc3c(-c4nc(N[C@H]5CCCNC5)ncc4C(F)(F)F)c[nH]c3n2)C1 experimentaltarget="CDK7/cyclin H/MAT1 complex (Homo sapiens (Human), UniProt P50613)" measured=8.06
compound="FC(F)(F)c1cnc(N[C@H]2CCCNC2)nc1-c1c[nH]c2nc(C3CCCCO3)ccc12 (stereo partly shown) [Compound 30, formate]" experimentaltarget="CDK7/cyclin H/MAT1 complex (Homo sapiens (Human), UniProt P50613)" measured=7.98
compound="FC(F)(F)c1cnc(N[C@H]2CCCNC2)nc1-c1c[nH]c2nc(C3CCOC3)ccc12 (stereo partly shown) [Compound 29]" experimentaltarget="CDK7/cyclin H/MAT1 complex (Homo sapiens (Human), UniProt P50613)" measured=8.15

Alright, here's another compound for you.
Annotate the compound `C[C@H]1COCCN1c1ccc2c(-c3nc(N[C@H]4CCCNC4)ncc3C(F)(F)F)c[nH]c2n1` with its measured pIC50.
8.02

---

biological target: CDK2/cyclin E1 complex (Homo sapiens (Human), UniProt P24941); experiment: In vitro enzymatic inhibitory activity test, CDK2; settings: Caliper mobility shift, 180 min at 27° C.
pIC50: −log10 of the molar value.
Readings of pIC50 for the listed molecules

substancesmiles=C[C@@H]1COCCN1c1ccc2c(-c3nc(N[C@H]4CCCNC4)ncc3C(F)(F)F)c[nH]c2n1 experimentaltarget="CDK2/cyclin E1 complex (Homo sapiens (Human), UniProt P24941)" quantity=pIC50 measured="< 5.00"

Annotate the molecule `FC(F)(F)c1cnc(N[C@@H]2CN3CCC2CC3)nc1-c1c[nH]c2nc(N3CCOCC3)ccc12` with its measured pIC50.
< 5.00

Annotate the molecule `FC(F)(F)c1cnc(N[C@@H]2[C@@H]3CC[C@H]2NC3)nc1-c1c[nH]c2nc(N3CCOCC3)ccc12` with its measured pIC50.
< 5.00

---

Readings of pIC50 for the listed compounds
biological target: CDK9/CyclinT1 (Homo sapiens (Human), UniProt P50750); test: In vitro enzymatic inhibitory activity test, CDK9; details: Caliper mobility shift, 180 min at 27° C.
In simple prose, pIC50 is minus the logarithm base ten of a concentration in moles per litre.

Annotate the compound CC[C@H]1COCCN1c1ccc2c(-c3nc(N[C@H]4CCCNC4)ncc3C(F)(F)F)c[nH]c2n1 [Compound 104] with its measured pIC50.
5.56

Annotate the compound FC(F)(F)c1cnc(N[C@H]2CCCNC2)nc1-c1c[nH]c2nc(C3CCOC3)ccc12 (single isomer, unassigned) [Compound 107] with its measured pIC50.
5.84

---

Readings of pIC50 for the listed compounds
biological target: CDK9/CyclinT1 (Homo sapiens (Human), UniProt P50750); experiment: In vitro enzymatic inhibitory activity test, CDK9; conditions: Caliper mobility shift, 180 min at 27° C.
In simple prose, pIC50 is minus the logarithm base ten of a concentration in moles per litre.

compound="FC(F)(F)c1cnc(N[C@H]2CCCNC2)nc1-c1c[nH]c2nc(N3CCN(C4COC4)CC3)ccc12 [Compound 24]" measured=5.28

Annotate the compound CC1(C)CC[C@H](Nc2ncc(C(F)(F)F)c(-c3c[nH]c4nc(N5CCOCC5)ccc34)n2)CN1 [Compound 60] with its measured pIC50.
5.09

Annotate the compound FC(F)(F)c1cnc(N[C@H]2CCCNC2)nc1-c1c[nH]c2nc(N3CCOCC3)ccc12 [Compound 1] with its measured pIC50.
5.93

Annotate the compound O=S1(=O)CCN(c2ccc3c(-c4nc(N[C@H]5CCCNC5)ncc4C(F)(F)F)c[nH]c3n2)CC1 [Compound 25] with its measured pIC50.
6.40

Annotate the compound FC(F)(F)c1cnc(N[C@H]2CCCNC2)nc1-c1c[nH]c2nc(N3CCC4(CCOC4)CC3)ccc12 [Compound 9] with its measured pIC50.
5.34

Annotate the compound C[C@H]1COCCN1c1ccc2c(-c3nc(N[C@H]4CCCNC4)ncc3C(F)(F)F)c[nH]c2n1 [Compound 18] with its measured pIC50.
5.54

Recorded values, source patent US20240132489A1.
